These sequences were tested on HEK293T cells; SIcytotoxicity is the recorded read-out.
Ends that are not written are not given here.
Result Type: SIcytotoxicity

| Residue Sequence | Assayed Target | Result Type | Reading |
| --- | --- | --- | --- |
| KFSVFSKILRSIAKVF [Arachnoserver-18] | HEK293T cells | SIcytotoxicity | 3.1 |
| PLWKRRRFLSMLKARAKR [Conoserver-4] | HEK293T cells | SIcytotoxicity | 2.6 |
| KNKRFIRNLRSNLYQKIIKSTKSLL [Arachnoserver-9] | HEK293T cells | SIcytotoxicity | 2.9 |
| RRVKRFKKFFRKLKKSVKKRAKEFFK [ISOB-1] | HEK293T cells | SIcytotoxicity | 28.9 |
| FIKKLWRSKLAKKLRAKGRELLK [UniprotKB-17] | HEK293T cells | SIcytotoxicity | 3.9 |
| KRRRASPLWKRRRFLSMLKARAK [Conoserver-2] | HEK293T cells | SIcytotoxicity | 3.6 |
| GKWLISSLVAKHL [UniprotKB-6] | HEK293T cells | SIcytotoxicity | 0.3 |
| KLKKLRKWIYRIV [UniprotKB-8] | HEK293T cells | SIcytotoxicity | 3.5 |
| RKFNWGKLFKSAKKLYKTGKKLSKNKNVRKALKFGK [Arachnoserver-7] | HEK293T cells | SIcytotoxicity | 6.8 |
| KQKYLIKRSRAKMQNHKLFKLTKR [Conoserver-16] | HEK293T cells | SIcytotoxicity | 1.5 |
| RRASPLWKRRRFLSMLKARAKRTGYK [Conoserver-3] | HEK293T cells | SIcytotoxicity | 6.0 |
| LKLKSILGKLGVIL [UniprotKB-4] | HEK293T cells | SIcytotoxicity | 0.7 |

###

Test system: P. aeruginosa PA14
Study Conditions: PA14, 24 h
Ends that are not written are not given here.
The threshold is 20 µmol/L. Values of Minimal Inhibitory Concentration, P. aeruginosa PA14 (-) beneath it are tagged met; values meeting or exceeding it are tagged not met.

| Residue Sequence | Assayed Target | Assigned Class |
| --- | --- | --- |
| KLSGISKVLRAIAKFFK [Arachnoserver-28] | P. aeruginosa PA14 | met |
| SFKKILSAGKKLFKKAKKL [Arachnoserver-29] | P. aeruginosa PA14 | met |
| KRLRAKMLNSKFIKLIKR [Conoserver-1] | P. aeruginosa PA14 | not met |
| RKFKWGKLFSTAKKLYKKGKKLSK [UniprotKB-16] | P. aeruginosa PA14 | met |
| RRVKRFKKFFMKLKKSVKKRVMKFFK [UniprotKB-5] | P. aeruginosa PA14 | met |
| FLKKIWRSKLVKRL [UniprotKB-9] | P. aeruginosa PA14 | met |
| RRVKRFKKFFKKL [ISOB-6] | P. aeruginosa PA14 | not met |
| KNKRFIRNLRSNLYQKIIKSTKSLL [UniprotKB-14] | P. aeruginosa PA14 | not met |
| KIKWFKTMKSLAKFLAK [Arachnoserver-33] | P. aeruginosa PA14 | met |
| KWGKLFSAGKKLLKKAKKL [Arachnoserver-4] | P. aeruginosa PA14 | met |
| ARKFKWGKLFSAGKKLLKKAKKLSKNK [Arachnoserver-11] | P. aeruginosa PA14 | met |
| KLLKIGLKSFARVLKKVL [UniprotKB-1] | P. aeruginosa PA14 | met |

###

Test system: HEK293T cells
Study Conditions: 24 h
Ends that are not written are not given here.
Category scheme (CC50 vs HEK293T cells (source data of Figure 4a)): low (below 10 µM), mid (10 µM to below 20 µM), high (20 µM or more)

| Residue Sequence | Assayed Target | Assigned Class |
| --- | --- | --- |
| KYRRGVSPWLKKELVRLHNNLRSKVAGGK [Arachnoserver-31] | HEK293T cells | mid |
| KNKRFIRNLRSNLYQKIIKSTKSLL [Arachnoserver-9] | HEK293T cells | high |
| KLHGLLTRRSLKNFWKRNLYLR [Conoserver-6] | HEK293T cells | high |
| KRRRASPLWKRRRFLSMLKARAK [UniprotKB-10] | HEK293T cells | high |
| RGLAKLLKIGLKSFARVLKK [Arachnoserver-12] | HEK293T cells | low |
| RKFKWGSFKKILSAGKKLFKKAKKLSKNKNFKKALK [Arachnoserver-6] | HEK293T cells | low |
| RRVKRFKKFFMKLKKSVKKRVMKFFK [UniprotKB-5] | HEK293T cells | low |
| RKFKWGKLFSTAKKLYKKGKKLSKNKNFKKALK [UniprotKB-12] | HEK293T cells | high |
| SKKQIRLYLLKYYGKKLFKKRPK [Arachnoserver-19] | HEK293T cells | mid |
| KNKRFIRNLRSNLYQKIIKSTKSLL [UniprotKB-14] | HEK293T cells | high |
| RKFNWGKLFKSAKKLYKTGKKLSKNKNVRKALKFGK [Arachnoserver-7] | HEK293T cells | low |
| FIKKLWRSKLAKKLRAKGRELLK [UniprotKB-17] | HEK293T cells | high |
| KWLKAMKSIAKFIAKKQMKKHL [Arachnoserver-32] | HEK293T cells | low |
| KLLKIGLKSFARVLKKVL [Arachnoserver-1] | HEK293T cells | high |
| KLKKLRKWIYRIV [UniprotKB-8] | HEK293T cells | high |
| LKLKSILGKLGVIL [UniprotKB-4] | HEK293T cells | mid |
| SFKKILSAGKKLFKKAKKL [Arachnoserver-29] | HEK293T cells | mid |
| KIKWLKAMKSIAKFIAKK [Arachnoserver-5] | HEK293T cells | mid |
| KRFIRNLRSNLYQKIIKSTKSLLDLREKI [Arachnoserver-17] | HEK293T cells | mid |
| RKFKWGKLFSTAKKLYKKGKKLSK [UniprotKB-16] | HEK293T cells | high |
| KFSVFSKILRSIAKVF [Arachnoserver-18] | HEK293T cells | mid |
| KLSGISKVLRAIAKFFK [Arachnoserver-28] | HEK293T cells | low |
| RFGSFLKKVWKSKLAKKL [UniprotKB-20] | HEK293T cells | high |
| KFSVFSKILRSIAKVFKGVGKVRK [Arachnoserver-27] | HEK293T cells | low |
| ARKFKWGKLFSAGKKLLKKAKKLSKNK [Arachnoserver-11] | HEK293T cells | low |
| KWLGKLGVILSHL [UniprotKB-15] | HEK293T cells | high |
| KLWNSKLARKIRTKGLKYVKNFAK [UniprotKB-3] | HEK293T cells | mid |
| VNSFKIGGFIKKLWRSKLAKKLRAK [UniprotKB-19] | HEK293T cells | high |
| KRLKGFAKKLWNSKLARKIRTKGLKYVKNFAK [UniprotKB-7] | HEK293T cells | mid |
| RKRRRFISMLKARAKRR [Conoserver-15] | HEK293T cells | high |
| WLGSALKIGAKLL [UniprotKB-2] | HEK293T cells | low |

###

// values below are reported HC50
Test system: human red blood cells
Study Conditions: pH 7.4
Ends that are not written are not given here.

| Residue Sequence | HC50 |
| --- | --- |
| RKFKWGSFKKILSAGKKLFKKAKKLSK [Arachnoserver-2] | 108.1 |
| RKFKWGKLFSTAKKLYKKGKKLSKNKNFKKALK [UniprotKB-12] | 604.3 |
| KRLKGFAKKLWNSKLARKIRTKGLKYVKNFAK [UniprotKB-7] | 207.9 |
| KRFIRNLRSNLYQKIIKSTKSLLDLREKI [Arachnoserver-17] | 280.5 |
| LTKWLGKLGVIL [UniprotKB-11] | 146.7 |
| LKLKSILGKLGVIL [UniprotKB-4] | 3.938e+054 |
| KLWNSKLARKIRTKGLKYVKNFAK [UniprotKB-3] | 8.23e+034 |
| KRRRASPLWKRRRFLSMLKARAK [UniprotKB-10] | 627.2 |
| LRAKMLNSKFIKL [Conoserver-5] | 1.085e+083 |
| RHRIVRTYIAKFGLK [ISOB-2] | 1.085e+083 |
| KLLKIGLKSFARVLKKVL [Arachnoserver-1] | 82.7 |
| RKRRRFISMLKARAKRR [Conoserver-15] | 1.085e+083 |
| KIKWLKAMKSIAKFIAKK [Arachnoserver-5] | 46.7 |
| RKFKWGSFKKILSAGKKLFKKAKKLSKNKNFKKALK [Arachnoserver-6] | 12.1 |
| KLHGLLTRRSLKNFWKRNLYLR [Conoserver-6] | 66.3 |
| VNSFKIGGFIKKLWRSKLAKKLRAK [UniprotKB-19] | 625.9 |
| FLKKIWRSKLVKRL [UniprotKB-9] | 219457.0 |
| QPRRVKRFKKFFKKLKNSVKKRAKKF [ISOB-7] | 569.0 |
| RQEYPTKRLRAKMLNSKFIKLIKR [Conoserver-12] | 1.085e+083 |
| KWLGKLGVILSHL [UniprotKB-15] | 1.374e+045 |
| SFKKILSAGKKLFKKAKKL [Arachnoserver-29] | 1.085e+083 |
| RKFKWGKLFSTAKKLYKKGKKLSK [UniprotKB-16] | 2082.0 |
| KQKYLIKRSRAKMQNHKLFKLTKR [Conoserver-16] | 1.085e+083 |
| RGLAKLLKIGLKSFARVLKK [Arachnoserver-12] | 40.1 |
| KLLKIGLKSFARVLKKVL [UniprotKB-1] | 34.9 |
